Reported Kd by item:
Target: T1, E. coli β-clamp labelled with RED-maleimide dye (MST) (E. coli, UniProt P0A988 1-366, RED-maleimide fluorescent dye (RED-Maleimide Labelling Kit, NanoTemper); site not stated)
T1 construct: β-clamp (β subunit of DNA polymerase III), product of the dnaN gene, E. coli; it may or may not be the same His-tagged pET-16b construct as m1; also called fluorescent labeled β-clamp; Purified E.coli β-clamp; source: labelled with the RED-Maleimide Labelling Kit
Test: MST; β-clamp labelled with RED-maleimide (3 nM stock, diluted 1:1 with ligand); peptides in 16 1:1 dilutions from 500 μM to 15 nM; 50 mM Tris-HCl pH 7.5, 150 mM NaCl, 10 mM MgCl2, 2% fetal bovine serum; Monolith NT.115; change of fluorescence analysed
Details: both partners purified

[
  {
    "binder": "Ac-MDRWLVKWKKKRKIRRRRRRRRRRR-NH2 (also: TFA salt, APIM motif RWLVK, linker WKKKRKI, cell penetrating R11; TFA salt, >90% pure; also called RWLVK-peptide; cell penetrating RWLVK-peptide; source: synthetic peptide; bought: Innovagen, Sweden) [Cell penetrating APIM-peptide RWLVK (Ac-MD-RWLVK-WKKKRKI-RRRRRRRRRRR)]",
    "Kd": "< 50 µM"
  },
  {
    "binder": "Ac-MDRALVKWKKKRKIRRRRRRRRRRR-NH2 (also: TFA salt, mutated APIM RALVK, linker WKKKRKI, cell penetrating R11; TFA salt, >90% pure; also called RALVK-peptide; source: synthetic peptide; bought: Innovagen, Sweden) [Cell penetrating peptide with mutated APIM RALVK (Ac-MD-RALVK-WKKKRKI-RRRRRRRRRRR)]",
    "Kd": "> 750 µM"
  },
  {
    "binder": "Ac-MDRFSLKWKKKRKIRRRRRRRRRRR-NH2 (also: TFA salt, APIM motif RFSLK, linker WKKKRKI, cell penetrating R11; TFA salt, >90% pure; also called RFSLK-peptide; source: synthetic peptide; bought: Innovagen, Sweden) [Cell penetrating APIM-peptide RFSLK (Ac-MD-RFSLK-WKKKRKI-RRRRRRRRRRR)]",
    "Kd": "< 50 µM"
  }
]
